I'd be grateful if you could share measured Kp uu at 2 h for these entries.
Assay: Unbound brain-to-plasma concentration ratio in CD rat 1 to 100 mg/kg, po measured after 120 mins by LC/MS/MS analysis
Format: ADME, organism-based
Settings: brain and plasma (unbound), dose 1-100 mg/kg, read-out: K(p,uu,brain)

[
  {
    "structureAsSmiles": "C[C@@H]1CN(c2cc(-c3n[nH]c4ccc(OC5(C)CC5)cc34)ncn2)C[C@H](C)O1",
    "Kp uu at 2 h": 0.7
  }
]

# context switch: different compound, same Kp uu at 2 h
Consider the compound O[C@H]1COC[C@H]1N1CC[C@@H](c2cc3nc(Nc4cnn([C@@H]5CC5(F)F)c4Cl)ncc3cc2Cl)[C@H](F)C1 and give its measured Kp uu at 2 h.
0.36

----------
For each entry below, report its Papp A→B at 3 h, up to 1 µM value.
System: rat Mdr1a (P-gp)
Assay: Apparent permeability from apical to basolateral side in rat Mdr1a-transfected pig LLC-PK1 cells at 0.1 to 1 uM measured after 3 hrs by LC/MS/MS analysis
Format: ADME, cell-based, Sus scrofa
Conditions: dose 0.1-1 µM

Check out these entries, answers already filled in.
[
  {
    "molecule": "Cc1c(Nc2ncc3ccc(C4(C#N)CC4)cc3n2)cnn1C1CCOCC1",
    "experimentalEndpoint": "Papp A→B at 3 h, up to 1 µM",
    "observedMeasurement": "34 ×10⁻⁶ cm/s"
  },
  {
    "molecule": "Clc1cc2cnc(Nc3cnn(C4CC4)c3Cl)nc2cc1C1CCN(C2COC2)CC1",
    "experimentalEndpoint": "Papp A→B at 3 h, up to 1 µM",
    "observedMeasurement": "26 ×10⁻⁶ cm/s"
  },
  {
    "molecule": "Cc1c(Nc2ncc3cccc(C4CC4)c3n2)cnn1C1CCOCC1",
    "experimentalEndpoint": "Papp A→B at 3 h, up to 1 µM",
    "observedMeasurement": "36 ×10⁻⁶ cm/s"
  },
  {
    "molecule": "O[C@H]1COC[C@H]1N1CC[C@@H](c2cc3nc(Nc4cnn([C@@H]5CC5(F)F)c4Cl)ncc3cc2Cl)[C@H](F)C1",
    "experimentalEndpoint": "Papp A→B at 3 h, up to 1 µM",
    "observedMeasurement": "30 ×10⁻⁶ cm/s"
  },
  {
    "molecule": "Cc1c(Nc2ncc3cc(Cl)c(C4CCN(C5COC5)CC4)cc3n2)cnn1C1CC1",
    "experimentalEndpoint": "Papp A→B at 3 h, up to 1 µM",
    "observedMeasurement": "35 ×10⁻⁶ cm/s"
  }
]

Give measured Papp A→B at 3 h, up to 1 µM for every item shown.
1. CC(C)(O)Cn1ncc(Nc2ncc3cc(Cl)c(C4CCN(C5COC5)CC4)cc3n2)c1Cl
2. Cc1c(Nc2ncc3ccc(C4(C#N)CC45CC5)cc3n2)cnn1C1CCOCC1 (centres undefined)

1. 33 ×10⁻⁶ cm/s
2. 34 ×10⁻⁶ cm/s

Please state Papp A→B at 3 h, up to 1 µM for every molecule in the list that follows.
1. FC(F)Cn1ncc(Nc2ncc3cc(Cl)c(C4CCN(C5COC5)CC4F)cc3n2)c1Cl (centres undefined)
2. Cc1c(Nc2ncc3cc(Cl)c(C4CCN([C@@H]5COC[C@@H]5O)CC4)cc3n2)cnn1[C@@H]1CC1(F)F

["33 ×10⁻⁶ cm/s", "31 ×10⁻⁶ cm/s"]

Cited source for all entries: ChEMBL document CHEMBL5042510
